# System: Streptococcus pneumoniae Stpn_280-962
# Protocol: MIC, broth microdilution (NCCLS)
# Assay type: cell-based
# Condition Info: Table 5, Strain ID G (Table 4): S. pneumoniae Stpn_280-962 Pen S
Readout Kind: MIC

CC[C@H]1OC(=O)[C@H](C)C(=O)[C@H](C)[C@@H](OC2O[C@H](C)C[C@H](N(C)C)[C@H]2O)[C@@](C)(OC)C[C@@H](C)C(=O)[C@H](C)[C@@H]2[C@@H]1OC(=O)N2CCCn1cnc(-c2ccccc2)c1 (stereo partly shown) [Compound 4714] ... =0.5
CC[C@H]1OC(=O)[C@H](C)C(=O)[C@H](C)[C@@H](OC2O[C@H](C)C[C@H](N(C)C)[C@H]2O)[C@@](C)(OC)C[C@@H](C)C(=O)[C@H](C)[C@@H]2[C@@H]1OC(=O)N2CCCn1cnc2cccnc21 (stereo partly shown) [Compound 4716] ... =0.5
CC[C@H]1OC(=O)[C@H](C)C(=O)[C@H](C)[C@@H](OC2O[C@H](C)C[C@H](N(C)C)[C@H]2O)[C@@](C)(OC)C[C@@H](C)C(=O)[C@H](C)[C@@H]2[C@@H]1OC(=O)N2CCCCc1ccc2ccccc2n1 (stereo partly shown) [Compound 5960] ... =0.05
CC[C@H]1OC(=O)[C@H](C)C(=O)[C@H](C)[C@@H](OC2O[C@H](C)C[C@H](N(C)C)[C@H]2O)[C@@](C)(OC)C[C@@H](C)C(=O)[C@H](C)[C@@H]2[C@@H]1OC(=O)N2CCCCc1ccnc2ccccc12 (stereo partly shown) [Compound 6220] ... =0.05

----------
# Test system: Staphylococcus epidermidis Step_f50654
# Protocol: MIC, broth microdilution (NCCLS)
# Assay type: cell-based
# Condition Info: Table 10, Strain ID D (Table 8): Staphylococcus epidermidis Step_f50654; in µg/mL (unit assumed)
Give MIC for every item shown.
Give bare numbers.

Look over these answered cases.
C=C[C@]12OC(=O)N(CCCCn3cnc(-c4ccc(C)nc4)c3)[C@@H]1[C@@H](C)C(=O)[C@H](C)C[C@](C)(OC)[C@H](OC1O[C@H](C)C[C@H](N(C)C)[C@H]1O)[C@@H](C)C(=O)[C@@H](C)C(=O)O[C@@H]2CC (stereo partly drawn) ... 0.2
CC[C@H]1OC(=O)[C@H](C)C(=O)[C@H](C)[C@@H](OC2O[C@H](C)C[C@H](N(C)C)[C@H]2O)[C@@](C)(OC)C[C@@H](C)C(=O)[C@H](C)[C@H]2N(CCCCn3cnc(-c4ccc(OC)nc4)c3)C(=O)O[C@]12CC (stereo partly drawn) ... 0.2

For every listed record, write down its MIC.
1. CC[C@H]1OC(=O)[C@H](C)C(=O)[C@H](C)[C@@H](OC2O[C@H](C)C[C@H](N(C)C)[C@H]2O)[C@@](C)(OC)C[C@@H](C)C(=O)[C@H](C)[C@H]2N(CCCCn3cnc(-c4ccc(Cl)nc4)c3)C(=O)O[C@]12CC (stereo partly drawn)
2. CC[C@H]1OC(=O)[C@H](C)C(=O)[C@H](C)[C@@H](OC2O[C@H](C)C[C@H](N(C)C)[C@H]2O)[C@@](C)(OC)C[C@@H](C)C(=O)[C@H](C)[C@@H]2[C@@H]1OC(=O)N2CCCCn1cnc(-c2ccc(C)nc2)c1 (stereo partly drawn)
3. C=C[C@]12OC(=O)N(CCCCn3cnc(-c4ccc(OC)nc4)c3C)[C@@H]1[C@@H](C)C(=O)[C@H](C)C[C@](C)(OC)[C@H](OC1O[C@H](C)C[C@H](N(C)C)[C@H]1O)[C@@H](C)C(=O)[C@@H](C)C(=O)O[C@@H]2CC (stereo partly drawn)

1: 0.1; 2: 0.2; 3: 0.4
